# target desc: T1, Cynomolgus monkey recombinant glycophorin A ectodomain (Cynomolgus monkey)
# T1 construct: extracellular domain
# assay name: ELISA, Fab on coated recombinant cyno GPA ectodomain
binding in ELISA relative to parental Fab reference
measurement label: binding in ELISA relative to parental Fab

>>> observed_result("TPP-5839, Hu6C12-24 Fab variant VL: (S24R, A26S, S49A, P54Q, F95Y); VH: (I48M, D66G, L70M, T72R) (Fab, V domains shown, Built on the parental Fab TPP-4935) VH: EVQLVQSGAEVKKPGASVKVSCKASGYTFTTYTIHWVRQAPGQGLEWMGYINPSSDYTRYNPKFKGRVTMTRDKSTSTAYMELRSLRSDDTAVYYCQTGTRDYWGQGTTVTVSS VL: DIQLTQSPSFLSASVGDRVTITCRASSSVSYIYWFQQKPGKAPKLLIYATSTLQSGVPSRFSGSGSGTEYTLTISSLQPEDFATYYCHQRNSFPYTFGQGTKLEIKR")
"1.2 relative to parental Fab"
>>> observed_result("TPP-5841, Hu6C12-24 Fab variant VL: (S24R, A26S, S49A, P54Q, F95Y); VH: (D66G, L70M) (Fab, V domains shown, Built on the parental Fab TPP-4935) VH: EVQLVQSGAEVKKPGASVKVSCKASGYTFTTYTIHWVRQAPGQGLEWIGYINPSSDYTRYNPKFKGRVTMTTDKSTSTAYMELRSLRSDDTAVYYCQTGTRDYWGQGTTVTVSS VL: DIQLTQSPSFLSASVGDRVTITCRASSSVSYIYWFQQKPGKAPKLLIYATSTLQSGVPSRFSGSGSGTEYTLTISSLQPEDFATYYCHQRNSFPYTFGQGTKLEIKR")
"1.2 relative to parental Fab"
>>> observed_result("TPP-5701, Hu6C12-24 Fab variant VL: (S49A, P54Q, F95Y) (Fab, V domains shown, Built on the parental Fab TPP-4935) VH: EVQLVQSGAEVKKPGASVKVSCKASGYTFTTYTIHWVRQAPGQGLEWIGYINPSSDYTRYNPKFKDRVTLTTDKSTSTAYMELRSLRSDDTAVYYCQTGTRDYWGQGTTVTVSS VL: DIQLTQSPSFLSASVGDRVTITCSAASSVSYIYWFQQKPGKAPKLLIYATSTLQSGVPSRFSGSGSGTEYTLTISSLQPEDFATYYCHQRNSFPYTFGQGTKLEIKR")
"1 relative to parental Fab"

Data origin: patent US20190359687A1
